Target: T1, SmgGDS-558 (human, UniProt P52306-2 1-558)
T1 sequence (looked up): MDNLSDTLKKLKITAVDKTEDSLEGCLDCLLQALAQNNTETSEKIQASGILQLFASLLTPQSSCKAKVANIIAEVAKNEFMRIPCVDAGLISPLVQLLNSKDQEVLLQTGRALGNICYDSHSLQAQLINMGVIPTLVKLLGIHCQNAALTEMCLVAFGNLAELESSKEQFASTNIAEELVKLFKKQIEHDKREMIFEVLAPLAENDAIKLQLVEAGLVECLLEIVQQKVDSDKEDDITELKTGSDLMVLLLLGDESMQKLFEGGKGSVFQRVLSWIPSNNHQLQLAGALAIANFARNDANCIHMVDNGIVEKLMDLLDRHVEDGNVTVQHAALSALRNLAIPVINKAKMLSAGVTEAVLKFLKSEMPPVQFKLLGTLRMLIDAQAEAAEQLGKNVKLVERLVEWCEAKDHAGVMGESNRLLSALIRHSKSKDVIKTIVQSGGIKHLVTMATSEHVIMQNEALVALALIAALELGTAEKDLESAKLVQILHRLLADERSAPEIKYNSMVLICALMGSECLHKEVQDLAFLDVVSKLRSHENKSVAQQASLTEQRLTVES
Assay: fluorescence polarisation
pKd: −log10 of the molar value. Ends that are not written are not given here. * marks the point of attachment. 5FAM = O=C1OC2(c3ccc(O)cc3Oc3cc(O)ccc32)c2ccc(C(=O)*)cc21
measure: pKd

Record request: pKd value, item 5FAM-GCLVL [RhoA CaaX only peptide (5fam-GCLVL)]
< 4.40
